From: patent US20240279345A1

Target: T1, recombinant human α5β1 integrin (human, UniProt P08648 42-995; P05556 21-728)
T1 construct: also called rh-α5β1
T1 sequence (P08648 42-995 limits assumed, form in doubt, chain 1 of 2): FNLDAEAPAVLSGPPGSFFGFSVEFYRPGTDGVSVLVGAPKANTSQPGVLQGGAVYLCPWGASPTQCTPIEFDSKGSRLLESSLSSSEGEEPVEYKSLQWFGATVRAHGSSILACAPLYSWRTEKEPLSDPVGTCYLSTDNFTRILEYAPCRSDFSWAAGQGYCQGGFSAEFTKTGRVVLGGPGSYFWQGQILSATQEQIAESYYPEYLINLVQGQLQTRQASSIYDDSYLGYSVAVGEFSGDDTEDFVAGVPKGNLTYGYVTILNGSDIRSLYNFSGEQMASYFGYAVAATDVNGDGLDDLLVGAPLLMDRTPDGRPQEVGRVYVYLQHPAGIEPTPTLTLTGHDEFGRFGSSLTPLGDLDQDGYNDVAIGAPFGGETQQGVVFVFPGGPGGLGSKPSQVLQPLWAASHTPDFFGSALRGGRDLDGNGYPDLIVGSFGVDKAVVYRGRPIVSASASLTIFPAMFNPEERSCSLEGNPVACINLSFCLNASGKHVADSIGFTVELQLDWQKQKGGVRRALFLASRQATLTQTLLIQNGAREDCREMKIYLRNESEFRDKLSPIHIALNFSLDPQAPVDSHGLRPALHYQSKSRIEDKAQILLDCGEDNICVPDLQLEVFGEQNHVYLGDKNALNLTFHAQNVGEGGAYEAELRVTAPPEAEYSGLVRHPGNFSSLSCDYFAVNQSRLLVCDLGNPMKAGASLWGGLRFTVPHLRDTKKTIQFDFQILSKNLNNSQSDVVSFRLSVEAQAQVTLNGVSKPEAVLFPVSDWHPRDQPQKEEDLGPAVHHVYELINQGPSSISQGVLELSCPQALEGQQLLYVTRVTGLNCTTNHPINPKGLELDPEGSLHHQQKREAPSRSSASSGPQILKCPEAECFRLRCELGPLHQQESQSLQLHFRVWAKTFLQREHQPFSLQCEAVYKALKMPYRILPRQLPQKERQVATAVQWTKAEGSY
T1 sequence (P05556 21-728 limits assumed, form in doubt, chain 2 of 2): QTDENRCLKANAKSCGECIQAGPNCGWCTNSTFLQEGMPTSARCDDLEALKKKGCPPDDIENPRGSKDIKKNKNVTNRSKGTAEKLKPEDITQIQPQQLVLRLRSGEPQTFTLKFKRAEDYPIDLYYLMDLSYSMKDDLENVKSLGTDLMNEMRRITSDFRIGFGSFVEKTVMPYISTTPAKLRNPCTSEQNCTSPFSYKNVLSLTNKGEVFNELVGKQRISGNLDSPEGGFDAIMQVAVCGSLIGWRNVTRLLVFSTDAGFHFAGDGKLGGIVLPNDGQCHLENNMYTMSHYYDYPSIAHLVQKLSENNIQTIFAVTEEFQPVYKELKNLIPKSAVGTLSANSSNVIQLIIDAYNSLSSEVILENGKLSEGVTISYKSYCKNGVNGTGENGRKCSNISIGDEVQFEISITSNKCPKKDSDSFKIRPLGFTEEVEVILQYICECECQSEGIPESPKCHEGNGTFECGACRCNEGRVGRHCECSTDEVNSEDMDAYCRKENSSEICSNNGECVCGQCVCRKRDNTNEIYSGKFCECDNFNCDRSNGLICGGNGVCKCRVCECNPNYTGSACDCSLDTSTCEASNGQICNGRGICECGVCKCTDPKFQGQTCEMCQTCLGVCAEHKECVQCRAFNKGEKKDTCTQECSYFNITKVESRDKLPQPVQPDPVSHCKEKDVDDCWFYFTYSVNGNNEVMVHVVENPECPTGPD
Assay: ELISA, coated integrin, supernatant 1:10
Result type: Absorbance 450 nm (A450)
Numbers only, in A450.

{"Binder": "A-11G01 (antibody, V domains shown, mouse hybridoma supernatant) VH: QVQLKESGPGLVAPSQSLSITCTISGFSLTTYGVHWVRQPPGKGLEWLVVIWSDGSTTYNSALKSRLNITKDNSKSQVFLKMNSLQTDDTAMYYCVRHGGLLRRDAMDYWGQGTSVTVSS VL: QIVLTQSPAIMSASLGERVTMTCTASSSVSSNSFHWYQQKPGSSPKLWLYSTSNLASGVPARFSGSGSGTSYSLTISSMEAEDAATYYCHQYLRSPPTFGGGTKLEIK", "Result units": "A450", "Absorbance 450 nm": 0.519}

Q) May I ask what Absorbance 450 nm has been recorded for A-7D06 (antibody, V domains shown, mouse hybridoma supernatant) VH: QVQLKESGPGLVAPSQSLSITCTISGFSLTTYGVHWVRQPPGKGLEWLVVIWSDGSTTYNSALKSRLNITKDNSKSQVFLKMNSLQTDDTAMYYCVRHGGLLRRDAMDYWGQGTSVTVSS VL: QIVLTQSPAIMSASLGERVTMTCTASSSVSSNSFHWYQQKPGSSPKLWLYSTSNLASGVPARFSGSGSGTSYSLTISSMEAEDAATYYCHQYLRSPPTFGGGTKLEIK ?
A) 0.613
